Parameter pKd: see the listing below.
Tested system: T1, soluble form of the Variant-specific Surface Glycoprotein (sVSG) of T. b. brucei AnTat1.1 (Trypanosoma brucei brucei AnTat1.1, UniProt P06015)
T1 construct: Variant-specific Surface Glycoprotein (VSG) of Trypanosoma brucei brucei AnTat1.1, soluble form (sVSG); Glycoprotein; amine-coupled to a CM5 chip for SPR; also called AnTat1.1 sVSG; soluble AnTat1.1 VSG
Method notes: SPR; BIAcore T100; 1000-1500 RU soluble AnTat1.1 VSG amine-coupled on a CM5 chip; Nanobody 500 to 7.8 nM at 30 µl/min in HBS (10 mM Hepes pH 7.5, 150 mM NaCl, 3.5 mM EDTA, 0.005% Tween-20); 1:1 binding model with local Rmax
Experimental parameters: both partners purified
Worth noting: pKd values are minus log10 of concentrations stated in mol/L.

[[record]]
binder = "Nb_An33mut1 (VHH, Conjugated with Alexa Fluor 488 for flow cytometry; source: E. coli WK6, purified (Ni-NTA, Superdex 75 gel filtration)) VHH: DVQLVESGGGSVQAGGSLRLSCAVSGRALSPCTTGWYRQAPGKEREWVSSISSPGTIYYQDSVKGRFTISRDNAKNTVYLQMNSLQREDTGMYYCQIQCGVRSIREYWGQGTQVTVSS"
property_measured = "pKd"
test_value = 7.05


Ask: For the binder Nb_An33hum2 (VHH) VHH: DVQLVESGGGSVQAGGSLRLSCAVSGSTYSPCTTGWVRQAPGKGLEWVSSISSPGTIYYQDSVKGRFTISRDNAKNTVYLQMNSLQREDTGMYYCQIQCGVRSIREYWGQGTQVTVSS , what pKd is on record?
Result: 6.27

Ask: Then Nb_An33mut2 (VHH, Conjugated with Alexa Fluor 488 for flow cytometry; source: E. coli WK6, purified (Ni-NTA, Superdex 75 gel filtration)) VHH: DVQLVESGGGSVQAGGSLRLSCAVSGSTYSPCTTGWYRQAPGKEREWVSSISSPGTIYYQDSVKGRFTISRDNAKNTVYLQMNSLQREDTGMYYCQIQCGFVNINEYWGQGTQVTVSS ?
Result: 6.14

Ask: Then Nb_An33mut3 (VHH, Conjugated with Alexa Fluor 488 for flow cytometry; source: E. coli WK6, purified (Ni-NTA, Superdex 75 gel filtration)) VHH: DVQLVESGGGSVQAGGSLRLSCAVSGSTYSPCTTGWYRQAPGKEREWVSSISSPGTIYYQDSVKGRFTISRDNAKNTVYLQMNSLQREDTGMYYCQIQCGNDCILEYWGQGTQVTVSS ?
Result: 6.71

Ask: Then Nb_An33hum1 (VHH) VHH: DVQLVESGGGSVQAGGSLRLSCAVSGSTYSPCTTGWVRQAPGKEREWVSSISSPGTIYYQDSVKGRFTISRDNAKNTVYLQMNSLQREDTGMYYCQIQCGVRSIREYWGQGTQVTVSS ?
Result: 5.96

Ask: Then Nanobody 33 (Nb_An33), wildtype (VHH) VHH: DVQLVESGGGSVQAGGSLRLSCAVSGSTYSPCTTGWYRQAPGKEREWVSSISSPGTIYYQDSVKGRFTISRDNAKNTVYLQMNSLQREDTGMYYCQIQCGVRSIREYWGQGTQVTVSS ?
Result: 7.55

Ask: Then Nb_An33hum3 (VHH) VHH: DVQLVESGGGSVQAGGSLRLSCAVSGSTYSPCTTGWYRQAPGKGLEWVSSISSPGTIYYQDSVKGRFTISRDNAKNTVYLQMNSLQREDTGMYYCQIQCGVRSIREYWGQGTQVTVSS ?
Result: 7.63
